- SYSTEM: Human Fc (human)
- ASSAY_OVERVIEW: ELISA; negative control
METRIC: optical density (OD)
Provide only the numeric value, understood in OD.

Sample records with optical density:
365_E09 (antibody, V domains shown) VH: EVQLLESGGGLVQPGGSLRLSCAASGFTFSSYGMHWVRQAPGKGLEWVASINYNSGYKSYADSVKGRFTISRDNSKNTLYLQMNSLRAEDTAVYYCARSANWHDTALDYWGQGTLVTVSS VL: DIQMTQSPSSLSASVGDRVTITCRASQSILTYVNWYQQKPGKAPKLVIYAATSRASGVPSRFSGSGSGTDFTLTISSLQPEDFATYYCQQSDDSPLTFGGGTKVEIK :: 0.322
367_A04 (antibody, V domains shown) VH: EVQLLESGGGLVQPGGSLRLSCAASGFTFSSYSMNWVRQAPGKGLEWVSNINYNSGYKSYADSVKGRFTISRDNSKNTLYLQMNSLRAEDTAVYYCARSANWHDTALDYWGQGTLVTVSS VL: DIQMTQSPSSLSASVGDRVTITCRASQSIITYLNWYQQKPGKAPKLLIYAATSRASGVPSRFSGSGSGTDFTLTISSLQPEDFATYYCQQSDDSPLTFGGGTKVEIK :: 0.267
365_F12 (antibody, V domains shown) VH: EVQLLESGGGLVQPGGSLRLSCAASGFTFSDYSMNWVRQAPGKGLEWVSGINYNGGYTSYADSVKGRFTISRDNSKNTLYLQMNSLRAEDTAVYYCARSANWHDTHLDYWGQGTLVTVSS VL: DIQMTQSPSSLSASVGDRVTITCRASQSILTYVNWYQQKPGKAPKLVIYAATSRHSGVPSRFSGSGSGTDFTLTISSLQPEDFATYYCQQSYETPLTFGGGTKVEIK :: 0.411
368_F06 (antibody, V domains shown) VH: EVQLLESGGGLVQPGGSLRLSCAASGFTFDDYSMHWVRQAPGKGLEWVANINYNSGYTGYADSVKGRFTISRDNSKNTLYLQMNSLRAEDTAVYYCARGATWHDTHLDYWGQGTLVTVSS VL: DIQMTQSPSSLSASVGDRVTITCRASQSILSYLNWYQQKPGKAPKLVIYATTSRASGVPSRFSGSGSGTDFTLTISSLQPEDFATYYCQQSYENPLTFGGGTKVEIK :: 0.249

We next turn to a different binder, shown below.
Q: Provide only the value of recorded optical density for 370_F12 (antibody, V domains shown) VH: EVQLLESGGGLVQPGGSLRLSCAASGFTFSDYSMNWVRQAPGKGLEWVANINYNGGYTGYADSVKGRFTISRDNSKNTLYLQMNSLRAEDTAVYYCARGATWHDTHLDYWGQGTLVTVSS VL: DIQMTQSPSSLSASVGDRVTITCRASQSILSYLNWYQQKPGKAPKLLIYAASSLQSGVPSRFSGSGSGTDFTLTISSLQPEDFATYYCQQSYDSPLTFGGGTKVEIK
Result: 0.457
